Biological target: σ2R (Rattus norvegicus)
Construct: 150 µg of rat liver homogenate were incubated; from tissue; host or cells: rat liver homogenate
Sequence (Q5U3Y7 1-176): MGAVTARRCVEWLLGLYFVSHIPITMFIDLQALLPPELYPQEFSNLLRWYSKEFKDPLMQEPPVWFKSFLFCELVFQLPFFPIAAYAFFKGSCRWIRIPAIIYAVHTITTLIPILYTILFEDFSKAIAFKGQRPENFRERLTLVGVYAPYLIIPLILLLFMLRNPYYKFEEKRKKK
Assay: Sigma-2 receptor binding, [3H]-DTG competition
Conditions: rat liver homogenate, [3H]-DTG; mean ± SEM; read-out: Ki σ2R
Measured Property: pKi
# log scale: pKi equals minus log10 of the concentration in mol/L

Problem: Query for σ2R (Rattus norvegicus): what pKi does the record show for COc1cc2oc(C(=O)Nc3cccc(CN(C)Cc4ccccc4)c3)cc(=O)c2cc1OC [Compound 6] ?
Solution: 5.89

====

Reported Ki values follow for various compounds
Molecular target: σ2R (Rattus norvegicus, UniProt Q5U3Y7)
Construct: 150 µg of rat liver homogenate were incubated; from tissue; host or cells: rat liver homogenate
Sequence (Q5U3Y7 1-176): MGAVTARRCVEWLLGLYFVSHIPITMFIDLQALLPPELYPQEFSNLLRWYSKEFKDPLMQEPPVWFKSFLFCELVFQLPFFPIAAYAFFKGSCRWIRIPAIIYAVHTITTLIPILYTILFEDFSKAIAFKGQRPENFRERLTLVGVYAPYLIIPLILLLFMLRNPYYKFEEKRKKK
Assay: Sigma-2 receptor binding, [3H]-DTG competition
Report as a plain number; the unit nM is understood.

CN(Cc1ccccc1)Cc1ccc(NC(=O)c2cc(=O)c3cc(O)ccc3o2)cc1; 1600

Problem: So what's the measured Ki for this one? "COc1ccc2oc(C(=O)Nc3ccc(CN(C)Cc4ccccc4)cc3)cc(=O)c2c1"
Solution: 1780

====

Biological target: hLOX-5 (Homo sapiens)
Sequence (P09917 whole entry): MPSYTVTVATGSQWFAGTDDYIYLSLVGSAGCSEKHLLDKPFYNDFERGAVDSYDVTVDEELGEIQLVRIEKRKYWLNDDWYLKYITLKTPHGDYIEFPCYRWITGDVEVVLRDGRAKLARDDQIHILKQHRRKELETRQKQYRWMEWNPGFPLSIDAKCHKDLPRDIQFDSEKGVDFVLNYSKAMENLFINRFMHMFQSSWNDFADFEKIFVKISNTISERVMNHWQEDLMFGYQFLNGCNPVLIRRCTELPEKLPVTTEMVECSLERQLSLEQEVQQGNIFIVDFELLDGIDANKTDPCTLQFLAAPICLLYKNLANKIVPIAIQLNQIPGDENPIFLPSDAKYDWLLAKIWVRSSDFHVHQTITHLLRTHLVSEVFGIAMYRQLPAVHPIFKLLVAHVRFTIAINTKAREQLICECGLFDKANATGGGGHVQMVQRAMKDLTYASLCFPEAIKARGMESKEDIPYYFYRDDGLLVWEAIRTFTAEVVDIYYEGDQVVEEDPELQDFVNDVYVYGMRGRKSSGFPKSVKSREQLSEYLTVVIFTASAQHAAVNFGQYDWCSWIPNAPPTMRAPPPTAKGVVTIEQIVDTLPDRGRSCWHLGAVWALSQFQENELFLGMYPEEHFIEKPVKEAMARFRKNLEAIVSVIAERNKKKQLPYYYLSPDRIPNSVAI
Assay: Inhibition of human lipoxygenase-5 (fluorescence-based, Pufahl)
Format: biochemical
Details: mean ± SEM, three independent experiments; read-out: hLOX-5 IC50
Experimental: The fluorescence-based enzyme method developed by Pufahl et al. was followed, in 96-well microtiter plates. The assay solution consists of Tris buffer (50 mM, pH 7.5), ethylenediaminetetraacetic acid (EDTA, 2 mM), CaCl2 (2 mM), arachidonic acid (AA, 3 μM), ATP (10 μM), 2',7'-dichlorodihydrofluorescein diacetate (H2DCFDA, 10 μM), hLOX-5 (100 mU/well), bovine glutathione peroxidase (GPx, 25 mU/well) and reduced glutathione (GSH, 1 mM). […]
Measured Property: IC50 (µM)
Report as a plain number; the unit µM is understood.

COc1ccc2oc(C(=O)Nc3ccc(CN(C)Cc4ccccc4)cc3)cc(=O)c2c1 [Compound 1]; 12.4

Turning now to a further molecule:
Problem: So what's the measured IC50 for this one? COc1cc2oc(C(=O)Nc3ccc(CN(C)Cc4ccccc4)cc3)cc(=O)c2cc1OC [Compound 5]
Solution: 72.4

====

Molecular target: human recombinant BACE-1 (hBACE-1) (Homo sapiens, UniProt P56817)
Sequence (P56817 46-501): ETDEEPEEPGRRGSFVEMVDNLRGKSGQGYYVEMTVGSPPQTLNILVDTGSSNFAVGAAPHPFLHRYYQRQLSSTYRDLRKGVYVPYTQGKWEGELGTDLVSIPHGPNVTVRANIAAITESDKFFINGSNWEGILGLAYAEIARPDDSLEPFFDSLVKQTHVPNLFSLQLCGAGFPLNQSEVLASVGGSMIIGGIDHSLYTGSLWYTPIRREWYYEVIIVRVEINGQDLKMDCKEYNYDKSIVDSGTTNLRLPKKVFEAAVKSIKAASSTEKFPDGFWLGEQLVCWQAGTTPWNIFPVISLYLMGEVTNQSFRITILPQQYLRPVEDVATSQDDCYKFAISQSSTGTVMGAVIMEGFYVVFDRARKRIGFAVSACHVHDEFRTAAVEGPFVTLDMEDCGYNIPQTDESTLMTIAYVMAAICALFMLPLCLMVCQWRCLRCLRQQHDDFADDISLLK
Assay: Human BACE-1 inhibition FRET assay
Conditions: inhibitor concentrations 0.1–100 µM
Measured Property: pIC50
# log scale: pIC50 equals minus log10 of the concentration in mol/L

Problem: So what's the measured pIC50 for this one? COc1cc2oc(C(=O)Nc3cccc(CN(C)Cc4ccccc4)c3)cc(=O)c2cc1OC [Compound 6]
Solution: 5.17

====

Molecular target: σ1R (Cavia porcellus)
Construct: the thawed membrane preparation of guinea pig brain cortex; from tissue; host or cells: guinea pig brain cortex membranes
Sequence (Q60492 whole entry): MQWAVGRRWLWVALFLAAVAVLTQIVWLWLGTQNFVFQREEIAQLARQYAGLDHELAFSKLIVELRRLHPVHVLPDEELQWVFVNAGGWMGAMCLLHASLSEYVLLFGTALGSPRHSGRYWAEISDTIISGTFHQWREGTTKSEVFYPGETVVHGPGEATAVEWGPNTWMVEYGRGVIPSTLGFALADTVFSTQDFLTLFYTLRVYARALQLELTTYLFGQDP
Experiment: Sigma-1 receptor binding, [3H]-(+)-pentazocine competition
Design: species or system guinea pig
Measured Property: Selectivity vs. σ1R (Kiσ2R/Kiσ1R)
Lab note: record the figure alone, no unit after it.

Answered cases to consult:
COc1cc2oc(C(=O)Nc3cccc(CN(C)Cc4ccccc4)c3)cc(=O)c2cc1OC; 2.5
CN(Cc1ccccc1)Cc1ccc(NC(=O)c2cc(=O)c3cc(O)ccc3o2)cc1; 4.2

Turning now to a further molecule:
Problem: So what's the measured Selectivity vs. σ1R (Kiσ2R/Kiσ1R) for this one? "COc1ccc2oc(C(=O)Nc3ccc(CN(C)Cc4ccccc4)cc3)cc(=O)c2c1"
Solution: 3.7

====

Target: recombinant hMAO-A (Homo sapiens)
Sequence (P21397 1-527): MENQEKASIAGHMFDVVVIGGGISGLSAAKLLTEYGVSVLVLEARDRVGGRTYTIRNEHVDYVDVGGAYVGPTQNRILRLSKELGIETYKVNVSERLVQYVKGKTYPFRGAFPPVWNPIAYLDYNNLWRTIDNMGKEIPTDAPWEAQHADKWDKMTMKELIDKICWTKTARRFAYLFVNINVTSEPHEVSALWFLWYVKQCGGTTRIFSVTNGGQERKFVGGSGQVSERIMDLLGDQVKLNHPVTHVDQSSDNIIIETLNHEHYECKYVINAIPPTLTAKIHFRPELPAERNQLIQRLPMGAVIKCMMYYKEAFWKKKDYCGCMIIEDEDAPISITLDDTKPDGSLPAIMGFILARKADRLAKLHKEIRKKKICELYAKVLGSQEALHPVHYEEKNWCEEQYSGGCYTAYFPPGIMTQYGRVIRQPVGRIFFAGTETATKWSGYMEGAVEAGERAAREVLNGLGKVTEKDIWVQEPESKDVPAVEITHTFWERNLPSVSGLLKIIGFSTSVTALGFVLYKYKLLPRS
Experiment: biochemical
Settings: mean ± SEM (n = 3); 100 µM highest concentration tested
Reported pIC50 values follow for various molecules
# log scale: pIC50 equals minus log10 of the concentration in mol/L

CN(Cc1ccccc1)Cc1ccc(NC(=O)c2cc(=O)c3c(O)cc(O)cc3o2)cc1; 4.64

Turning now to a further molecule:
Problem: Query for recombinant hMAO-A (Homo sapiens): what pIC50 does the record show for "CN(Cc1ccccc1)Cc1ccc(NC(=O)c2cc(=O)c3cc(O)ccc3o2)cc1" ?
Solution: 5.15

====

Molecular target: recombinant hMAO-A (Homo sapiens)
Test: biochemical
Details: mean ± SEM (n = 3); 100 µM highest concentration tested
Measured Property: IC50

Answered cases to consult:
CN(Cc1ccccc1)Cc1ccc(NC(=O)c2cc(=O)c3cc(O)ccc3[nH]2)cc1 [Compound 9]; > 100 µM
COc1ccc2[nH]c(C(=O)Nc3ccc(CN(C)Cc4ccccc4)cc3)cc(=O)c2c1 [Compound 8]; > 100 µM
COc1ccc2oc(C(=O)Nc3ccc(CN(C)Cc4ccccc4)cc3)cc(=O)c2c1 [Compound 1]; 1.6 µM
COc1cc2[nH]c(C(=O)Nc3ccc(CN(C)Cc4ccccc4)cc3)cc(=O)c2cc1OC [Compound 11]; > 100 µM
COc1cc2oc(C(=O)Nc3ccc(CN(C)Cc4ccccc4)cc3)cc(=O)c2cc1OC [Compound 5]; 9 µM

Problem: So what's the measured IC50 for this one? COc1cccc2[nH]c(C(=O)Nc3ccc(CN(C)Cc4ccccc4)cc3)cc(=O)c12 [Compound 7]
Solution: > 100 µM

Problem: Please give the result for COc1cc2[nH]c(C(=O)Nc3cccc(CN(C)Cc4ccccc4)c3)cc(=O)c2cc1OC [Compound 13] too.
Solution: > 100 µM

Problem: Please give the result for COc1ccc2c(=O)cc(C(=O)Nc3ccc(CN(C)Cc4ccccc4)cc3)[nH]c2c1 [Compound 10] too.
Solution: > 100 µM

====

Reported pIC50 values follow for various compounds
Target: recombinant hMAO-B (Homo sapiens, UniProt P27338)
Sequence (P27338 whole entry): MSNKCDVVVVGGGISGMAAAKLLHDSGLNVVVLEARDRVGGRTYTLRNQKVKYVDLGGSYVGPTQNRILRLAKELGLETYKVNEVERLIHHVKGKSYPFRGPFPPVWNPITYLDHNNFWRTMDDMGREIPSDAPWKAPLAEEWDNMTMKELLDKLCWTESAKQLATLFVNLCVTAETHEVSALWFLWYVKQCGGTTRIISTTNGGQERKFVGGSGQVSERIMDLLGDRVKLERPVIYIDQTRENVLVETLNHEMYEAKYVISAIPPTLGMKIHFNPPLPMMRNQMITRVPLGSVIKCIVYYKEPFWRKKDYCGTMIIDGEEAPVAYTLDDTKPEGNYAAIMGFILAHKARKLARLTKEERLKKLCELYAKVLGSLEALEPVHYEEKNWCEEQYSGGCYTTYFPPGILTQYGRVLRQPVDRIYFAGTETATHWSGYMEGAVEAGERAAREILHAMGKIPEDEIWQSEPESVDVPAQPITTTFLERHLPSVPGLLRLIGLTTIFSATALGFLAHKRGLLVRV
Experiment: biochemical
Details: mean ± SEM (n = 3); 100 µM highest concentration tested
pIC50: −log10 of the molar value.

Answered cases to consult:
COc1cc2oc(C(=O)Nc3cccc(CN(C)Cc4ccccc4)c3)cc(=O)c2cc1OC [Compound 6]; < 4.00
COc1ccc2c(=O)cc(C(=O)Nc3ccc(CN(C)Cc4ccccc4)cc3)[nH]c2c1 [Compound 10]; < 4.00
COc1cc(OC)c2c(=O)cc(C(=O)Nc3ccc(CN(C)Cc4ccccc4)cc3)oc2c1 [Compound 3]; < 4.00
COc1cc2[nH]c(C(=O)Nc3cccc(CN(C)Cc4ccccc4)c3)cc(=O)c2cc1OC [Compound 13]; < 4.00
CN(Cc1ccccc1)Cc1ccc(NC(=O)c2cc(=O)c3cc(O)c(O)cc3[nH]2)cc1 [Compound 12]; < 4.00

Problem: So what's the measured pIC50 for this one? COc1ccc2oc(C(=O)Nc3ccc(CN(C)Cc4ccccc4)cc3)cc(=O)c2c1 [Compound 1]
Solution: 4.22

Problem: Please give the result for CN(Cc1ccccc1)Cc1ccc(NC(=O)c2cc(=O)c3cc(O)ccc3o2)cc1 [Compound 2] too.
Solution: 5.01

Problem: Please give the result for COc1cc2oc(C(=O)Nc3ccc(CN(C)Cc4ccccc4)cc3)cc(=O)c2cc1OC [Compound 5] too.
Solution: 5.09

====

Target: hAChE (Homo sapiens, UniProt P22303)
Sequence (P22303 32-614): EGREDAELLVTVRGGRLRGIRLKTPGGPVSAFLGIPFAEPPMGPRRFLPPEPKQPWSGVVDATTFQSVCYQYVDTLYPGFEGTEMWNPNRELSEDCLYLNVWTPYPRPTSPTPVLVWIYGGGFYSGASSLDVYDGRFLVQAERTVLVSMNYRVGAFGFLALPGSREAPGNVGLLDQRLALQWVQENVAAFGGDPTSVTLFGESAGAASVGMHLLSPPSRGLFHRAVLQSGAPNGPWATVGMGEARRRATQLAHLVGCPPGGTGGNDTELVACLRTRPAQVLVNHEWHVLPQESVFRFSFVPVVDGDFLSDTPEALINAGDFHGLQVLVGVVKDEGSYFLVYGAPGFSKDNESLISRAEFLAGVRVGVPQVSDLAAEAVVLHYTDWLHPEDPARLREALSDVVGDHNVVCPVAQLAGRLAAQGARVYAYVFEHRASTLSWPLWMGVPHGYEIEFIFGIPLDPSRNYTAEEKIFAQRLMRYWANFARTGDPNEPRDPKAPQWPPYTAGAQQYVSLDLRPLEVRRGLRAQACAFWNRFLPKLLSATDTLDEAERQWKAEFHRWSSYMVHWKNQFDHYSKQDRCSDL
Measured Property: Ki (nM)
Report as a plain number; the unit nM is understood.

Problem: So what's the measured Ki for this one? "COc1cc2oc(C(=O)Nc3ccc(CN(C)Cc4ccccc4)cc3)cc(=O)c2cc1OC"
Solution: 950
